System: KB
assay.details: in vitro anticancer activity against cultured KB(epidermoid) human tumor cell line
Type: functional, cell-based
assay.metric: IC50

Recorded results for 3 molecules are shown here.
{"columns": ["molecule", "system.tested", "assay.metric", "measurement"],
 "data": [
  ["CO[C@@]12[C@H](COC(N)=O)C3=C(C(=O)C(C)=C(NCCCOCCCNC4=C(C)C(=O)C5=C(C4=O)[C@@H](COC(N)=O)[C@@]4(OC)[C@H]6NC6CN54)C3=O)N1CC1N[C@@H]12 (some centres undefined)", "KB", "IC50", "> 1 µg/mL"],
  ["CO[C@@]12[C@H](COC(N)=O)C3=C(C(=O)C(C)=C(N)C3=O)N1C[C@H]1[C@@H]2N1C(=O)CCCCC(=O)N1[C@@H]2CN3C4=C(C(=O)C(N)=C(C)C4=O)[C@H](COC(N)=O)[C@]3(OC)[C@@H]21", "KB", "IC50", "> 1 µg/mL"],
  ["CO[C@@]12[C@H](COC(N)=O)C3=C(C(=O)C(C)=C(N)C3=O)N1C[C@H]1[C@@H]2N1C(=O)CCC(=O)N1[C@@H]2CN3C4=C(C(=O)C(N)=C(C)C4=O)[C@H](COC(N)=O)[C@]3(OC)[C@@H]21", "KB", "IC50", "> 1 µg/mL"]
]}

Moving on to the next molecule.
[ask] Name the recorded IC50 for CO[C@@]12[C@H](COC(N)=O)C3=C(C(=O)C(C)=C(Nc4ccc(Oc5ccc(NC6=C(C)C(=O)C7=C(C6=O)[C@@H](COC(N)=O)[C@@]6(OC)[C@H]8NC8CN76)cc5)cc4)C3=O)N1CC1N[C@@H]12 (some centres undefined) .
[reply] 0.064 µg/mL
